B1: Tyrosine-protein kinase Lck, residues 63 to 120; numbered along this chain, P06239 (parent)
chain: DNLVIALHSYEPSHDGDLGFEKGEQLRILEQSGEWWKAQSLTTGQEGFIPFNFVAKAN

Variants of: B1
Assay method text: abundance fitness (aPCA) (normalised: wild type 0, dead -1); higher = more abundant; growth selection in yeast, the domain comes from the species named
Experimental setup: Homo sapiens
Assay metric: abundance fitness
The response must contain the number and no unit.

L18A -0.591
W36I -0.617

Please look at the following variant next.
Value lookup for abundance fitness; key = `L26E`
-0.596
